Sourced from patent US20240270821A1

biological target: hGLP-1R (Homo sapiens, UniProt P43220); test: cell-based or functional assay
Sequence (P43220 24-463): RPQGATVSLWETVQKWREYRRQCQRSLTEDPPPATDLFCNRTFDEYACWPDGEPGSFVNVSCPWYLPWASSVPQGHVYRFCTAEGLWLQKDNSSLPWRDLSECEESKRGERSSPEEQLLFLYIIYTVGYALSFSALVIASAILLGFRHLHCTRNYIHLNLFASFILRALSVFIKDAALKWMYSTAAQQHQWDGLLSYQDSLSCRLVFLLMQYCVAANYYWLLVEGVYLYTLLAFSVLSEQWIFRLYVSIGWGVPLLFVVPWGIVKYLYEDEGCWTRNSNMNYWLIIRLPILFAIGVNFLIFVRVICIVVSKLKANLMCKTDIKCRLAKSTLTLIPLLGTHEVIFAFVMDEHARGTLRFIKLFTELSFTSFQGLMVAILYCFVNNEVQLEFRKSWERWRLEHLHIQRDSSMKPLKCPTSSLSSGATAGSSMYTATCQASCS
Starred links: 1 amine or outer side, 2 acyl side, 3 side chain; linkers in the order of their positions; H or OH if unused. Non-standard residues stand in square brackets, D forms with d. Groups on a side chain read outwards from the residue. No end group written: not given here. *: point of attachment. C20 diacid = O=C(O)CCCCCCCCCCCCCCCCCCC(=O)*; γGlu = O=C(O)[C@H](CCC(=O)[*:2])N[*:1]; αMeL = CC(C)C[C@](C)(N)C(=O)O; AEEA = NCCOCCOCC(=O)O; Aib = CC(C)(N)C(=O)O
endpoint-name: cAMP Rel EC50 (1% HSA) (nM)
Give the quantity in nM, number only.

Y[Aib]QGTFTSDYSI[αMeL]LDKQAAK([AEEA-AEEA-γGlu-C20 diacid])QFVEWLLAGGPSSGEPPPGEG-NH2 [Example 320]: 328
YXQGTFTSDXSQXLDXKAQXAFIQXLIEGGPSSGAPPPSGSEE (Aib, 4Pal, αMeL, Orn, Me4Pal, αMeY; acylated Lys; C-terminal amide; synthetic construct; SITE 2: note = 2-Aminoisobutyric Acid; SITE 10: note = 3-(4-Pyridyl)-L-alanine; SITE 13: note = alpha-methyl-leucine; SITE 16: note = L-ornithine; SITE 17: note = Lysine is chemically modified through conjugation of the epsilon-amino group of the Lysine side chain with D-Glutami) [Example 1072]: 95.1
Y[Aib]QGTFTSDYSK[αMeL]LDKK([AEEA-γGlu-C20 diacid])AQQAFVQWLIEGGPSSGEPPPSEG-NH2 [Example 315]: 140
YXQGTFTSDXSQXLDXKAQXAFIEXLIAXGPSSGEPPPSGSEE (non-natural residues (Aib, 4Pal, Orn, Me4Pal, αMeY); lipidated K; amide; synthetic construct; SITE 2: note = 2-Aminoisobutyric Acid; SITE 10: note = 3-(4-Pyridyl)-L-alanine; SITE 13: note = alpha-methyl-leucine; SITE 16: note = L-ornithine; SITE 17: note = Lysine is chemically modified through conjugation of the epsilon-amino group of the Lysine side chain with (gamma-Gl)) [Example 1094]: 64.4
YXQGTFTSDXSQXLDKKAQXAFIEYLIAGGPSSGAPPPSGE (Aib, 4Pal, αMeL, Me4Pal; acylated lysine; amide; synthetic construct; SITE 2: note = 2-Aminoisobutyric Acid; SITE 10: note = 3-(4-Pyridyl)-L-alanine; SITE 13: note = alpha-methyl-leucine; SITE 17: note = Lysine is chemically modified through conjugation of the epsilon-amino group of the Lysine side chain with (Glu)2-(gamma-Glu)-CO-(CH2)16-CO2H; SI) [Example 1087]: 439

Next, consider the following binder.
QUERY: Returns the measured cAMP Rel EC50 (1% HSA) for the input binder. Input: YXQGTFTSDXSKXLDKKAQXAFIEYLIEXGPSSGAPPPSGSEE (non-natural residues, C-terminal amide, acylated Lys with fatty diacid; synthetic construct; SITE 2: note = 2-Aminoisobutyric Acid; SITE 10: note = 3-(4-Pyridyl)-L-alanine; SITE 13: note = alpha-methyl-leucine; SITE 17: note = Lysine is chemically modified through conjugation of the epsilon-amino group of the Lysine side chain with (2-[2-(2-Amino-ethoxy)-ethoxy]-acetyl)) [Example 902]
RESULT: 232
